The origin of these recorded values is the supplement of paper PMC10567573.

Reported protein stability index values are given for each entry in this list.
B1: BTBD1 (parent)
chain: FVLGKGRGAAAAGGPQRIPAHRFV

variants of: B1; experiment: protein stability index of a GFP-peptide fusion (GPS, HEK-293T) (PSI 1-6); higher = more stable; details: c terminus: a fixed tail appended;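 note: lentivirally expressed fusions sorted by FACS into six bins by GFP to DsRed ratio, PSI derived from sequencing read proportions per bin multiplied by bin number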
endpoint_label: protein stability index

>>> df
    variant_string           endpoint_label  value
 0             K5N  protein stability index   2.04
 1            P19Q  protein stability index   2.17
 2             R7F  protein stability index   1.27
 3            Q16P  protein stability index   1.86
 4            A10D  protein stability index   1.64
 5             F1P  protein stability index   3.04
 6             R7W  protein stability index   3.44
 7            R22L  protein stability index    2.3
 8            H21F  protein stability index   4.04
 9            G14Q  protein stability index   2.88
10            G14I  protein stability index   1.26
11            A20S  protein stability index   1.53
12             G6F  protein stability index   1.02
13            A10C  protein stability index   1.36
14            G13H  protein stability index   1.71
15            H21D  protein stability index   2.22
16            A10E  protein stability index   1.67
17             A9S  protein stability index   1.57
18             L3V  protein stability index   1.61
19             F1I  protein stability index   1.91
20             G8I  protein stability index   2.26
21             L3S  protein stability index      3
